target: 5-HT1A receptor (Homo sapiens)
Sequence (P08908 whole entry): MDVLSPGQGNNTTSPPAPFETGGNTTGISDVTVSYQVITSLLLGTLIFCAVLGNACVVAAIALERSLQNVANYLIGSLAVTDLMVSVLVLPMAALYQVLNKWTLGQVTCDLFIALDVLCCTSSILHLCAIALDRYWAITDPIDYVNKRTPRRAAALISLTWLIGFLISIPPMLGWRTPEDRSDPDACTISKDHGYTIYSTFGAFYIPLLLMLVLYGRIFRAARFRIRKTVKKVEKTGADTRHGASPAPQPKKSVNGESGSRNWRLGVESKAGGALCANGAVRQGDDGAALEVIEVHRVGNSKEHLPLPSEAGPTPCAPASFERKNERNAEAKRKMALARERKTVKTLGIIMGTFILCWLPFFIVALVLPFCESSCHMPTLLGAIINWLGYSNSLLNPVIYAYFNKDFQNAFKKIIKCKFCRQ
readout-kind: IC50 (nM)
Provide the reading as a plain figure in nM.

Which IC50 is reported with 5-HT1A receptor (Homo sapiens) for this entry: Fc1ccc(-c2cncc(CNC[C@H]3CCc4ccccc4O3)c2)cc1 ? 1
